So I've got a bunch of binders here, and I need their koff values.
# target.desc: T1, biotinylated recombinant human trimeric ARG2 enzyme (Avi-huARG2-His10) (human, UniProt P78540 23-354, biotinylated)
# T1 construct: also called avi-Arg2-His10; bio-ARG2
# T1 chain: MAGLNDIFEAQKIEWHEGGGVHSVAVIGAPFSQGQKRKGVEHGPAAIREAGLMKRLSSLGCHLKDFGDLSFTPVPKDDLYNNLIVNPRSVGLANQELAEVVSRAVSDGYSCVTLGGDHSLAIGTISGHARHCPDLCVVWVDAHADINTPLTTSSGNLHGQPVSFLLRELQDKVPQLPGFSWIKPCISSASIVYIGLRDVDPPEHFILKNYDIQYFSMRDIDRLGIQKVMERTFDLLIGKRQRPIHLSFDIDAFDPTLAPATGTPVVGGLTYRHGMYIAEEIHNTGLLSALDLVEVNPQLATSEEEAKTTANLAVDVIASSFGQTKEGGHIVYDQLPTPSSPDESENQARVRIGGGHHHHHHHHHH
# measurement.notes: BLI (OctetRED), biotinylated ARG2 on streptavidin, Fab as analyte
Please append the unit to your numeric answer.

For C0021021 Fab (Fab, V domains shown, Human Fab) VH: EVQLLESGGGLVQPGGSLRLSCAASGFTFSSYAMSWVRQAPGKGLEWVSSILFSPGSTYYADSVKGRFTISRDNSKNTLYLQMNSLRAEDTAVYYCARLRADLGLYMDLWGRGTLVTVSS VL: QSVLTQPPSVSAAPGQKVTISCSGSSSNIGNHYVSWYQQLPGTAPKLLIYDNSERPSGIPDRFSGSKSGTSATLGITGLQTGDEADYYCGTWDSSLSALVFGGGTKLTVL the binder record lists koff as 0.002 s⁻¹

For C0021141 Fab (Fab, V domains shown, Human Fab) VH: EVQLLESGGGLVQPGGSLRLSCAASGFTFYPDPQGWVRQAPGKGLEWVSAYGYGIGSTYYADSVKGRFTISRDNSKNTLYLQMNSLRAEDTAVYYCARLRADLGLYMDLWGRGTLVTVSS VL: QSVLTQPPSVSAAPGQEVTISCSGSSSNIDNHYVSWYQQLPGTAPKLLIYDNSERPSGIPDRFSGSKSGTSATLGITGLQTGDEADYYCGTWDSSLSALVFGGGTKLTVL the binder record lists koff as 0.00108 s⁻¹

For C0021133 Fab (Fab, V domains shown, Human Fab) VH: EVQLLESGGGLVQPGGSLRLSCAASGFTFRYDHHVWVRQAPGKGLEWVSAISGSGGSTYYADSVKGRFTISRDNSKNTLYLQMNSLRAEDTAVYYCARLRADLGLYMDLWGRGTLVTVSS VL: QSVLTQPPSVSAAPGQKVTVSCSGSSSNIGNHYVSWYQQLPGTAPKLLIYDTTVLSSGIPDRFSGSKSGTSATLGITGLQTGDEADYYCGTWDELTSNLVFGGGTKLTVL the binder record lists koff as 0.000449 s⁻¹

For C0021118 Fab (Fab, V domains shown, Human Fab) VH: EVQLLESGGGLVQPGGSLRLSCAASGFTFSSYAMSWVRQAPGKGLEWVSASLTNPGSTYYADSVKGRFTISRDNSKNTLYLQMNSLRAEDTAVYYCARLRADLGLYMDLWGRGTLVTVSS VL: QSVLTQPPSVSAAPGQKVTISCSGSSSNIGNHYVSWYQQLPGTAPKLLIYDNSERPSGIPDRFSGSKSGTSATLGITGLQTGDEADYYCATYDTNLSALVFGGGTKLTVL the binder record lists koff as 0.00114 s⁻¹
